- experimental.target: PTHR1 receptor
- Sequence (P25961 whole entry): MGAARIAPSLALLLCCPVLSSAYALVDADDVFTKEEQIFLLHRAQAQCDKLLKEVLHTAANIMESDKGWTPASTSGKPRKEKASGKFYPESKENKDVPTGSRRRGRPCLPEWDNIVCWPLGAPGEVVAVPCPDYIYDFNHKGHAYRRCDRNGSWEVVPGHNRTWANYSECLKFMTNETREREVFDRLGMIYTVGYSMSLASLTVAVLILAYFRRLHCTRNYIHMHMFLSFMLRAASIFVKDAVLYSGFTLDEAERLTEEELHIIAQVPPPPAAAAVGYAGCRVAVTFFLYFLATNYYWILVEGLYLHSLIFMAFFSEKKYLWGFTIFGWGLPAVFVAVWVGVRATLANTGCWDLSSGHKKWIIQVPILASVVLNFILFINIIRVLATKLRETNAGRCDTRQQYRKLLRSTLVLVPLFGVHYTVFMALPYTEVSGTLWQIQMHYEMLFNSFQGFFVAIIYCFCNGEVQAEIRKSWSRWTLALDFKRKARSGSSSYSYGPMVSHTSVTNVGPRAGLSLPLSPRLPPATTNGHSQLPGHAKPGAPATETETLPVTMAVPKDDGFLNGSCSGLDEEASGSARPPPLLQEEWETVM
* marks the point of attachment. Palmitoyl = CCCCCCCCCCCCCCCC(=O)*
Values of Fold Shift of EC50 greater than or equal to 2 fold map to T; values below map to F.

Palmitoyl-LAYFRRLHSTRN-NH2 (SMILES CCCCCCCCCCCCCCCC(=O)N[C@@H](CC(C)C)C(=O)N[C@@H](C)C(=O)N[C@@H](Cc1ccc(O)cc1)C(=O)N[C@@H](Cc1ccccc1)C(=O)N[C@@H](CCCNC(=N)N)C(=O)N[C@@H](CCCNC(=N)N)C(=O)N[C@@H](CC(C)C)C(=O)N[C@@H](Cc1c[nH]cn1)C(=O)N[C@@H](CO)C(=O)N[C@H](C(=O)N[C@@H](CCCNC(=N)N)C(=O)N[C@@H](CC(N)=O)C(N)=O)[C@@H](C)O) [Compound 14]; F
Palmitoyl-RSDTRQQYRKLLKS-NH2 (SMILES CCCCCCCCCCCCCCCC(=O)N[C@@H](CCCNC(=N)N)C(=O)N[C@@H](CO)C(=O)N[C@@H](CC(=O)O)C(=O)N[C@H](C(=O)N[C@@H](CCCNC(=N)N)C(=O)N[C@@H](CCC(N)=O)C(=O)N[C@@H](CCC(N)=O)C(=O)N[C@@H](Cc1ccc(O)cc1)C(=O)N[C@@H](CCCNC(=N)N)C(=O)N[C@@H](CCCCN)C(=O)N[C@@H](CC(C)C)C(=O)N[C@@H](CC(C)C)C(=O)N[C@@H](CCCCN)C(=O)N[C@@H](CO)C(N)=O)[C@@H](C)O) [Compound 66]; T
Palmitoyl-GGYFRRLHSTRNYIH-NH2 (SMILES CCCCCCCCCCCCCCCC(=O)NCC(=O)NCC(=O)N[C@@H](Cc1ccc(O)cc1)C(=O)N[C@@H](Cc1ccccc1)C(=O)N[C@@H](CCCNC(=N)N)C(=O)N[C@@H](CCCNC(=N)N)C(=O)N[C@@H](CC(C)C)C(=O)N[C@@H](Cc1c[nH]cn1)C(=O)N[C@@H](CO)C(=O)N[C@H](C(=O)N[C@@H](CCCNC(=N)N)C(=O)N[C@@H](CC(N)=O)C(=O)N[C@@H](Cc1ccc(O)cc1)C(=O)N[C@H](C(=O)N[C@@H](Cc1c[nH]cn1)C(N)=O)[C@@H](C)CC)[C@@H](C)O) [Compound 13]; F
Palmitoyl-RQQYRKLLKSTL-NH2 (SMILES CCCCCCCCCCCCCCCC(=O)N[C@@H](CCCNC(=N)N)C(=O)N[C@@H](CCC(N)=O)C(=O)N[C@@H](CCC(N)=O)C(=O)N[C@@H](Cc1ccc(O)cc1)C(=O)N[C@@H](CCCNC(=N)N)C(=O)N[C@@H](CCCCN)C(=O)N[C@@H](CC(C)C)C(=O)N[C@@H](CC(C)C)C(=O)N[C@@H](CCCCN)C(=O)N[C@@H](CO)C(=O)N[C@H](C(=O)N[C@@H](CC(C)C)C(N)=O)[C@@H](C)O) [Compound 57]; T
Palmitoyl-TNAGRSATRQQYRKLL-NH2 (SMILES CCCCCCCCCCCCCCCC(=O)N[C@H](C(=O)N[C@@H](CC(N)=O)C(=O)N[C@@H](C)C(=O)NCC(=O)N[C@@H](CCCNC(=N)N)C(=O)N[C@@H](CO)C(=O)N[C@@H](C)C(=O)N[C@H](C(=O)N[C@@H](CCCNC(=N)N)C(=O)N[C@@H](CCC(N)=O)C(=O)N[C@@H](CCC(N)=O)C(=O)N[C@@H](Cc1ccc(O)cc1)C(=O)N[C@@H](CCCNC(=N)N)C(=O)N[C@@H](CCCCN)C(=O)N[C@@H](CC(C)C)C(=O)N[C@@H](CC(C)C)C(N)=O)[C@@H](C)O)[C@@H](C)O) [Compound 82]; T

Evaluate Palmitoyl-RETNAGRSDTRQQYRF-NH2 (SMILES CCCCCCCCCCCCCCCC(=O)N[C@@H](CCCNC(=N)N)C(=O)N[C@@H](CCC(=O)O)C(=O)N[C@H](C(=O)N[C@@H](CC(N)=O)C(=O)N[C@@H](C)C(=O)NCC(=O)N[C@@H](CCCNC(=N)N)C(=O)N[C@@H](CO)C(=O)N[C@@H](CC(=O)O)C(=O)N[C@H](C(=O)N[C@@H](CCCNC(=N)N)C(=O)N[C@@H](CCC(N)=O)C(=O)N[C@@H](CCC(N)=O)C(=O)N[C@@H](Cc1ccc(O)cc1)C(=O)N[C@@H](CCCNC(=N)N)C(=O)N[C@@H](Cc1ccccc1)C(N)=O)[C@@H](C)O)[C@@H](C)O) [Compound 61] : Fold Shift of EC50 at minimum 2 fold?
F

Check this binder for Fold Shift of EC50 at or above 2 fold: Palmitoyl-LYLHSLIFMAFFSEKK-NH2 (not fully specified) [Compound 40]
F

Say whether Palmitoyl-AGRSDTRQQYRKLLFA-NH2 (SMILES CCCCCCCCCCCCCCCC(=O)N[C@@H](C)C(=O)NCC(=O)N[C@@H](CCCNC(=N)N)C(=O)N[C@@H](CO)C(=O)N[C@@H](CC(=O)O)C(=O)N[C@H](C(=O)N[C@@H](CCCNC(=N)N)C(=O)N[C@@H](CCC(N)=O)C(=O)N[C@@H](CCC(N)=O)C(=O)N[C@@H](Cc1ccc(O)cc1)C(=O)N[C@@H](CCCNC(=N)N)C(=O)N[C@@H](CCCCN)C(=O)N[C@@H](CC(C)C)C(=O)N[C@@H](CC(C)C)C(=O)N[C@@H](Cc1ccccc1)C(=O)N[C@@H](C)C(N)=O)[C@@H](C)O) [Compound 94] shows Fold Shift of EC50 of 2 fold or more.
T
